Test system: ex vivo porcine jejunum
Assay: Ussing chamber permeation across ex vivo porcine jejunum
Assay type: in vitro ADME, pig
Conditions: drug retained in intestinal membrane at t = 2 h; absence of inhibitor
Source text: Fresh jejunum from female, 6 month-old Swiss noble pigs was harvested immediately after slaughter (Abattoir de […], Switzerland and Abattoir de Loëx; Bernex, Switzerland). […] Briefly, the intestine was opened along the mesenteric border and carefully rinsed with ice-cold KBR. […] The integrity of the intestinal tissue was monitored throughout the experiment by measurement of the transepithelial resistance (TEER). […]
Decision: QDEP (−INH) >= 3% yields label 1, all other cases yield label 0.

Please indicate if the recorded QDEP (−INH) for O=C(O)c1cc(/N=N/c2ccc(S(=O)(=O)Nc3ccccn3)cc2)ccc1O meets or exceeds 3%.
label 1

Now give it for CC1=C(C(=O)O)N2C(=O)[C@@H](NC(=O)[C@H](N)c3ccc(O)cc3)[C@H]2SC1 too.
label 0

Follow-up entry: CNC(=C[N+](=O)[O-])NCCSCc1ccc(CN(C)C)o1
label 0

Try this compound too: CCCCC(=O)N(Cc1ccc(-c2ccccc2-c2nnn[nH]2)cc1)[C@H](C(=O)O)C(C)C
label 0

How about CC(C)c1nc(N(C)S(C)(=O)=O)nc(-c2ccc(F)cc2)c1/C=C/[C@@H](O)C[C@@H](O)CC(=O)O ?
label 1
